Data origin, for the record: the Immune Epitope Database (IEDB)

- system-under-test: HLA-A*02:01
- protocol-summary: IEDB peptide-MHC binding, cellular MHC/competitive/fluorescence; bounds were set here for any values at or beyond the usual limits of such assays
- run-parameters: source organism: Mammarenavirus guanaritoense
pIC50: −log10 of the molar value.
Below is a list of entries, each paired with its recorded pIC50 value.

input-sequence | relation-sign | pIC50
YVIGLLPQS | ≤ | 4.15
FMNDLQVSR | = | 5.20
KNAGYLVGR | = | 4.64
LCFWSAIFFT | = | 5.25
WSAIFFTTSL | = | 5.04
TNAEFTFQL | = | 5.30
YCLDFLFDV | = | 4.39
MNNVVQALT | = | 5.13

====

- system-under-test: HLA-A*02:01
- protocol-summary: IEDB peptide-MHC binding, purified MHC/competitive/radioactivity; bounds were set here for any values at or beyond the usual limits of such assays
- run-parameters: source organism: Vaccinia virus WR
observable: log10(IC50) (log10 of the value in nM)

input-sequence | system-under-test | test-value
SLHSLSVET | HLA-A*02:01 | 2.42
GLFIYIPGT | HLA-A*02:01 | 1.28
SLTNEIYASI | HLA-A*02:01 | 2.21
KIYTLIYRQL | HLA-A*02:01 | 3.60
MLLALVALV | HLA-A*02:01 | -0.38
RTCSNWVPL | HLA-A*02:01 | 0.69
NIVWEKKSLV | HLA-A*02:01 | 1.80
SLGKSPLPSL | HLA-A*02:01 | 2.13
YLMDEEVPA | HLA-A*02:01 | 1.11
FTYYPTNKL | HLA-A*02:01 | 3.24
YLYTEYFLFL | HLA-A*02:01 | -1.16
ALTDVEKRIL | HLA-A*02:01 | 2.63
DTGKKELAL | HLA-A*02:01 | 3.53
MASPENVIL | HLA-A*02:01 | 2.93
SLVITYCLVT | HLA-A*02:01 | 2.57
LIVRYLIQV | HLA-A*02:01 | 1.11
GIKGLDERFV | HLA-A*02:01 | 3.64
RLLDLFGPEV | HLA-A*02:01 | -0.01
MIHKTYIDV | HLA-A*02:01 | 3.28
LMIFISSFL | HLA-A*02:01 | -0.49
FLLFLEITYT | HLA-A*02:01 | 0.84

====

- system-under-test: HLA-A*02:06
- protocol-summary: IEDB peptide-MHC binding, purified MHC/competitive/radioactivity; bounds were set here for any values at or beyond the usual limits of such assays
- run-parameters: source organism: Vaccinia virus WR

input-sequence | IC50, nM
CIVQSVLRDI | 849
KVIKLVKSLV | 2140
IMDKEQLLKI | 1340
ELIDVLKTRL | 1990
NMLDDFSAGA | 242
KTDGAVTSPL | 347
VIPDELIDVL | 298
NVIGLIVIL | 15
CTMERTNDL | 96
AIFNNRNLA | 7.1
VVISVIFYFI | 542
VQLPKRGVRV | 41
YLRLYIILA | 4180
HVLLPFYET | 1740
QLVFNSISA | 3780
RAAIDRQVSV | 212
EVRYIDITNI | 4340
FLDWIKDIM | 162
NLYKVYNGI | 817
RLYDYFTRVT | 691
IASSMKGENV | 311
CVSNLDISSV | 48
LMIFISSFL | 18
SQIFNIISYI | 23
AADLTQIFEV | 11
TIGTIAGGV | 1140
VMYAFTTPLI | 12
FIASAPQQL | 89
IISSKQYPA | 1160
KTEHCDDFM | 2520
QIFNIISYII | 743
KMAVEVGSI | 119
YLLMHLVSL | 0.25
AAVTLNRIKI | 1920
RTIDAINKCV | 341
AVIPFDDIV | 42
KLPTWLGAA | 9.4
GMYYPTNDI | 1680
IVPDADPPI | 274
LVQYRILPM | 4670
LILSNKLLYA | 36
KINEMVDEL | 317
IVCIVAAVII | 3550
ALYYVHSLL | 3260

====

- system-under-test: HLA-A*02:06
- protocol-summary: IEDB peptide-MHC binding, purified MHC/competitive/radioactivity; bounds were set here for any values at or beyond the usual limits of such assays
- run-parameters: source organism: Vaccinia virus WR
pIC50: −log10 of the molar value.

input-sequence | system-under-test | pIC50
VTLNRIKIA | HLA-A*02:06 | 6.20
IITILQDIV | HLA-A*02:06 | 6.18
QLLKILDNL | HLA-A*02:06 | 6.87
IVQSVLRDI | HLA-A*02:06 | 5.88
SIISLFYTFA | HLA-A*02:06 | 7.03
VAMLLTHGA | HLA-A*02:06 | 6.14
YMVTDKTAYI | HLA-A*02:06 | 8.21
QVLQQNNSFI | HLA-A*02:06 | 5.63
ILPDKIDGL | HLA-A*02:06 | 7.37
FITVLTSVDI | HLA-A*02:06 | 5.90
IIDLLLPST | HLA-A*02:06 | 5.95
YLGHSAGFT | HLA-A*02:06 | 5.34
WLGAAITLVV | HLA-A*02:06 | 5.73
ILQMREIIT | HLA-A*02:06 | 5.91
PMSRLFMDEI | HLA-A*02:06 | 5.36
ALVSDCAST | HLA-A*02:06 | 6.51
KINNNRIVAM | HLA-A*02:06 | 5.50
NITRLEVIGL | HLA-A*02:06 | 6.71
GLFDINVIGL | HLA-A*02:06 | 6.62
IMSIGFEARI | HLA-A*02:06 | 5.80
DTMRIYCSL | HLA-A*02:06 | 5.54

====

- system-under-test: HLA-A*02:03
- protocol-summary: IEDB peptide-MHC binding, cellular MHC/competitive/fluorescence; bounds were set here for any values at or beyond the usual limits of such assays
- run-parameters: source organism: Influenza A virus
pIC50: −log10 of the molar value.
Below is a list of entries, each paired with its recorded pIC50 value.
observable: pIC50

input-sequence | observable | relation-sign | test-value
ILLRAFTEEGA | pIC50 | = | 4.58
PACVYGLA | pIC50 | ≤ | 4.15
QTRSKAGLLV | pIC50 | = | 4.66
TVDHMAII | pIC50 | = | 4.88
RAVKLYRKL | pIC50 | = | 4.30
NVLSIAPI | pIC50 | = | 4.76
NLPFDKTTIMA | pIC50 | = | 5.07
NVKDYSIV | pIC50 | = | 5.19

====

- system-under-test: HLA-A*02:06
- protocol-summary: IEDB peptide-MHC binding, purified MHC/competitive/radioactivity; bounds were set here for any values at or beyond the usual limits of such assays
- run-parameters: source organism: Mammarenavirus lassaense
Below is a list of entries, each paired with its recorded IC50 value.

input-sequence | IC50, nM
CNYSKYWYL | 2710
LLMEGLKLLS | 1750
LNCLSLLLSV | 251
LNISGYNFSL | 421
NCLSLLLSV | 630
MSIQLINKAV | 619
SIINHKFCNL | 1020
LLWDYMCIS | 408
FSTSFYLISI | 9.2

====

- system-under-test: HLA-A*02:06
- protocol-summary: IEDB peptide-MHC binding, cellular MHC/competitive/fluorescence; bounds were set here for any values at or beyond the usual limits of such assays
- run-parameters: source organism: Vaccinia virus WR
Categorized via IC50: class 1 (below 10 µM), class 2 (10 µM to below 20 µM), class 3 (20 µM or more)

input-sequence | label-class
KIQLFSDFTI | class 3
ALWDSNFFT | class 3
SILNNPVDT | class 2
VTKSSSWKDV | class 3
ILANERYRSA | class 1
CVRNLEELTT | class 3
IAVANCVRNL | class 1
IASKINNNRI | class 1
DAIKSNNHLT | class 3
LVDKEDTDIV | class 3
RINLLVQYGA | class 1
TLFIDRGSI | class 3
PVETLFGSYI | class 3
LLGLILFVL | class 1
STSNVITDQT | class 2
ALKNSQAEL | class 3
TVDFTDCRTI | class 2
YVEHDPRLV | class 3
RISSSLDQT | class 3
VVKDKIKLPT | class 3
VTTNNLLEQL | class 1
ELPYVGDTSM | class 3
DIKYDNKLL | class 3
ELENKKVEYV | class 3
VIPFDDIVRT | class 2
LISSDGARVI | class 3
DVNEEYTEAA | class 3
DIMTSTRTI | class 3
EIARIENEM | class 3
DTEFINKFL | class 3
ITFLRPVLKA | class 2
PTDMLKLFT | class 3
DTSNNIAEYI | class 3
DTDIVNNFI | class 2
RLEVIGLTT | class 3
FLVIAINAM | class 3
RVNDLNRMPT | class 1
ELSRLRYNL | class 2
ALEPRKEIDV | class 3
CVKYLLDNDI | class 1
IAIFNNRNL | class 2
VVIVENDNVI | class 2
DIVSDSKKIM | class 3
EMKYALINL | class 3
DITNILGGV | class 1
IIAVFDSKLI | class 1
PVIVPDIKL | class 3
IIELPYVGDT | class 2
EAKTHFSTT | class 3
SIENKHQRRL | class 3
LINLVQYRI | class 1
EVTPEYIKDL | class 1
ITNILGGVL | class 3
FTELENKKV | class 1
PAMSTYSDI | class 3
LIQYRQQLEL | class 3
NLVQYRILPM | class 3
NITHTNITTL | class 1
PTEMVDVSM | class 3
YVEHDPRLVA | class 2
DTCGASINIT | class 3
DLDKVYEIL | class 3
SVDFVVNGHT | class 3
PTPKKMNIVT | class 3
TTNNLLEQLI | class 2
RASTTENAA | class 2
NLRCHSAHV | class 1
DVGCLLTDT | class 3
KQNKFGDSPL | class 1
EAFETQSGA | class 3
NLCKYLRGHT | class 3
MAEFEDQLV | class 1
VIRHVDGKIL | class 3
GMMQNDYGGM | class 2
ATCALVSDCA | class 1
TAEQLSKYV | class 3
DIDLLFNEKL | class 3
NVTGFMEEEI | class 2
SVDAMIHKT | class 2
DIMLPESDL | class 3
SLETVKMGA | class 3
HTKFWISDNT | class 3
LIISTDQDT | class 3
